System: MS2 coat protein
protocol: apparent KD of MS2 coat protein; designed switch direction (-1 OFF switch, 1 ON switch): -1; higher = weaker reporter binding
applied_conditions: input ligand: FMN 200 uM
Rule: true for apparent KD of MS2 coat protein not less than 60 nM, false for anything less.

Answered examples (3):
sequence_data	class_name
CGACCACAUGAGGAUCACCCAUGUCAGGAUAUGAGAGCCUUACGAAAGAGACGGCAGCUUAGAAGGGAUGCGGC [Eternabot (L1) Solution 74] (Eterna round: R97, puzzle: Exclusion 1)	false
GAUUCGGGAGGAUAUACAUGAGGAUCACCCAUGUGUAUAUAAUAUGUUAAGUUAUCAUGUAGAAGGUUUGGGUC [-16.5, -16.2 kcal, 30% A] (Eterna round: R97, puzzle: Exclusion 3)	false
ACAACUGUUCCCAAGCUUUACAUGAGGAUCACCCAUGUUCGUCAAGAUUUGUACCAUCUAACGUAUGGCUCAAGUAC [Eternabot (L1) Solution 48] (Eterna round: R97, puzzle: Sensor, turn-off variant 1)	false

Q) Does the reported apparent KD of MS2 coat protein for UUUCCACAUGAGGAUCACCCAUGUCAGGAUAUCUCCACAUCUUCGGAUGUGGCGUGUUAGAGAAGGGACAUGUA [EX1 A.22] (Eterna round: R97, puzzle: Exclusion 1) fall at or above the 60 nM mark?
A) true

====

Tested on: MS2 coat protein
protocol: apparent KD of MS2 coat protein; higher = weaker reporter binding
applied_conditions: Eterna round: R107; input ligand: theophylline 2 mM
# reported apparent KD of MS2 coat protein; entries follow
Quick reminder: number only, in nM, skip the unit.

sequence_data	apparent KD of MS2 coat protein, nM
AUCAUGGCCAUCGAUACCAGCUACAUGAGGAUCACCCAUGUAAACGGCCCGGUGAGAUGUAGCCCUUGGCAGCGAAGGGUCAAGG [Ratimatiqu]	120
ACAUGAGGAUCACCCAUGUAAUCAUCAGAAGGAGCGUGGAAUAACACAGGUAGGUCGCUGAUGUUAUGUUAAAAUGGUUCGUGAA [JR_ExcArginiA_Sub002]	17.3

Notebook: GGACUAACUGGAAGGAGCGACACGCAGAAACUGCAAUUUCCUCCACACGAGGAUCACCCGUGUCAGGUAGGUCGCCAGUUAGUCG [ArgBX 29] , apparent KD of MS2 coat protein read as 57

Notebook: GAACAAGGUUUCUUGUUCGGUCGCUGAGAAGGAGCGCGGUAACCCGCAGGUAGGUCGCUCAGAAAUACAUGAGGAUCACCCAUGU [Anaa] , apparent KD of MS2 coat protein read as 21.7

Notebook: UUUUAAUGUGCGGAUACCAGCCGUACAUGAGGAUCACCCAUGUCGCUGUUGAGCAUCGUCGGCCCUUGGCAGCUGUGUGUAGUUG [#27 Same State - Theophylline B] , apparent KD of MS2 coat protein read as 66

Notebook: ACCGCAUCCGUAUAGGAUGCGGGCCAUGAAGGAGCGUGGGAAACCACAGGUAGGUCGCAUGGGUUACAUGAGGAUCACCCAUGUG [Jaws] , apparent KD of MS2 coat protein read as 585

Notebook: CUAUAAGUACCGGUCCUCAGAUCCUCAUGACGAGGACCGGUACGGCCGCCACUCGAAACAUGAGGAUCACCCAUGUAAUAACAUU [Brourdmod22] , apparent KD of MS2 coat protein read as 24.9
